This collection of values is drawn from patent US20220275067A1.

target: human tau oligomers (human, UniProt P10636-6 2-383, limits assumed); assay: cell-based or functional assay
Sequence (P10636 other isoform, or with tags, fused parts or gaps limits assumed): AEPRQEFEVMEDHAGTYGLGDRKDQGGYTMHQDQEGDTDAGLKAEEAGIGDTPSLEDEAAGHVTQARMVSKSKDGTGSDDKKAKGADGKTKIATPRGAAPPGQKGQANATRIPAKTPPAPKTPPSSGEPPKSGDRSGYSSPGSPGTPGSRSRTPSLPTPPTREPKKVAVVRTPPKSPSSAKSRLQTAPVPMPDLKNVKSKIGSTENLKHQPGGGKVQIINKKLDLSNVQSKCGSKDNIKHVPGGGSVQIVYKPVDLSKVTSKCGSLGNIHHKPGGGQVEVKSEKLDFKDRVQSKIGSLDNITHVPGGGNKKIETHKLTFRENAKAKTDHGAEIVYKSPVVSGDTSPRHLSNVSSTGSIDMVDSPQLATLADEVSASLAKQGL
Readings of MTT viability of primary neurons with tau oligomers, antibody at 3 molar equivs for the listed binders
Measured property: MTT viability of primary neurons with tau oligomers, antibody at 3 molar equivs

Binder	Result
mouse 12C4 antibody (antibody, mouse IgG2a, V domains shown, also called m12C4) VH: EVQLQQSGAELVRPGASVKLSCTASGFNIKDDYMNWVRQRPERGLEWIGWIDPENGDTAYASKFQGKATMTADTSSNTAYLQFSSLTSEDSAVYYCTTSNGWGQGTLVTVSA VL: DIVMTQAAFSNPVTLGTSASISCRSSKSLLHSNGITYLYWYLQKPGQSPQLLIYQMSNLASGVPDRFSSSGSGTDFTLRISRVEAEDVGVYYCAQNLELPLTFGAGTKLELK	78.7 % of control
mouse 2D11 antibody (antibody, mouse IgG2a, V domains shown) VH: EVQLQQSGAELVRPGASVKLSCTASGFNIKDDYMNWVKQRPERGLEWIGWIDPENGDTEYASKFQGKATMTADTSSNTAYLQFSSLTSEDTAVYYCTTSNGWGQGTLVTVST VL: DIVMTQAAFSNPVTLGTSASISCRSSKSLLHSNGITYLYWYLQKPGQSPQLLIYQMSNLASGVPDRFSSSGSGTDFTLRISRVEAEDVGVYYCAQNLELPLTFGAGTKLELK	64 % of control
mouse 10C12 antibody (antibody, mouse IgG2a, V domains shown, also called m10C12) VH: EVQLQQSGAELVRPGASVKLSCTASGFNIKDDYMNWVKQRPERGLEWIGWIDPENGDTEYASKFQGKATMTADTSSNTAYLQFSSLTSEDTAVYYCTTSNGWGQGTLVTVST VL: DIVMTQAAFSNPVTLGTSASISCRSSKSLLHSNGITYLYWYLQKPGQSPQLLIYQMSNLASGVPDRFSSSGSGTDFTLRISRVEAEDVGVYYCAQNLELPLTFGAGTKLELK	69.2 % of control
mouse 9F5 antibody (antibody, mouse IgG1, V domains shown, also called m9F5; murine 9F5) VH: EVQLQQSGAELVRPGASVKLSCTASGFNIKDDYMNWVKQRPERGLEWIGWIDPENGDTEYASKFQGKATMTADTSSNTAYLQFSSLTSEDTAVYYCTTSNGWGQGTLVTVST VL: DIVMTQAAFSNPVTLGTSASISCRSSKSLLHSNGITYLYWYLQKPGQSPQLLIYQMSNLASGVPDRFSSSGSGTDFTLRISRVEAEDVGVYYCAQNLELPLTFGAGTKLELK	92.6 % of control
